tested on: A549 NSCLC; assay: NCI tumour cell line growth inhibition, 48 h
Exercise: for every item that follows, state its recorded TGI.

IN: Look up TGI: CCN1C(C)(C)CC(Oc2ccc(C(=O)Nc3ccc(NC(=O)Nc4cc(C(C)(C)C)on4)cc3)nc2)CC1(C)C
OUT: 7.4 µM

IN: Look up TGI: C=CCNCCN1C(=O)c2ccc3c4c(ccc(c24)C1=O)C(=O)N(CCNCC=C)C3=O
OUT: 1.67 µM

IN: Look up TGI: c1ccc(-c2[o+]c(-c3ccccc3)c(-c3ccccc3)c(-c3ccccc3)c2-c2ccccc2)cc1
OUT: > 100 µM

IN: Look up TGI: COC(=O)Cc1c(C(=O)CC(C)(C)n2cnc(CCN3C(=O)CCC3=O)c2)[nH]c2ccccc12
OUT: > 100 µM

IN: Look up TGI: CC1CC(NN)=Nc2ccccc2N1 (configuration not stated)
OUT: > 100 µM

IN: Look up TGI: CC(=O)c1c2c(cc3c1CC1(Cc4cc5c(cc4C1)CCCC5)C3)CCCC2
OUT: > 100 µM

IN: Look up TGI: Cc1c2c(nn1-c1ccc(S/N=C3\SCC(=O)CN3Cc3ccccc3)cc1)-c1ccccc1CC2
OUT: > 100 µM

IN: Look up TGI: CC(C)(C)OC(=O)NC(Cc1ccc(OCc2ccccc2)cn1)C(=O)N1CCCC1 (configuration not stated)
OUT: > 100 µM

IN: Look up TGI: CN1CCN(CC(=O)N2CCCn3c2nc2ccccc2c3=O)CC1
OUT: > 100 µM

IN: Look up TGI: CNS(=O)(=O)NNS(=O)(=O)c1cccc([N+](=O)[O-])c1
OUT: > 100 µM

IN: Look up TGI: CS(=O)(=O)CCN(CC#N)Cc1ccc(-c2ccc3ncnc(Nc4ccc(OCc5cccc(F)c5)c(Cl)c4)c3c2)o1
OUT: > 25 µM

IN: Look up TGI: O=C(NC/C(Cl)=C/Cl)Nc1c2ccccc2nc2ccccc12
OUT: > 100 µM

IN: Look up TGI: CNC(=O)Oc1ccc(C(=S)Nc2ccc(Br)cc2)cc1
OUT: > 100 µM

IN: Look up TGI: COc1ccc(C(=O)NCCC2=CCCCC2)cc1
OUT: > 100 µM

IN: Look up TGI: COc1cccc2c(=O)c3c(n(C)c12)OC(C(C)C)C3 (configuration not stated)
OUT: > 100 µM

IN: Look up TGI: CC(=O)OCc1cnc2c3c(nc4ccccc4c13)C(=O)c1cccnc1-2
OUT: 14.9 µM

IN: Look up TGI: CC(C)c1cc2c(c(O)c1O)[C@@]1(C)CCCC(C)(C)C1=C(O)C2
OUT: 5.73 µM

IN: Look up TGI: COc1ccc(C2SC(N)=Nc3c2c(C)nn3C(=O)c2ccccc2O)cc1 (configuration not stated)
OUT: > 10 µM

IN: Look up TGI: COc1ccc2[nH]c3c(C)c4ccnc(NCCCN(C)CCCNc5ccc([N+](=O)[O-])c6[nH]c7ccccc7c(=O)c56)c4c(C)c3c2c1
OUT: 0.0783 µM

IN: Look up TGI: COc1cc(-c2cc(/C=C3\C(=O)Nc4cc(Cl)ccc43)[nH]n2)cc(OC)c1OC
OUT: 15 µM

IN: Look up TGI: N=C1N(/N=C/c2ccccn2)C(=Nc2ccccc2)C(=S)N1c1ccccc1
OUT: 23.8 µM

IN: Look up TGI: CN=c1ss/c(=N\C(=S)N(C)C)n1-c1ccccc1
OUT: > 100 µM

IN: Look up TGI: CCN(CC)CCCNc1[nH]ncc2cc3c(nc4ccc(OC)cc43)c(C)c12
OUT: 22.2 µM

IN: Look up TGI: CC1(C(=O)Nc2ccc3cc4ccccc4cc3c2)CC2(C)CC(C)(C1)C(O)NC2=O (configuration not stated)
OUT: > 100 µM

IN: Look up TGI: O=C1C(N2CCOCC2)=C(Cl)C(=O)c2ncccc21
OUT: > 10 µM

IN: Look up TGI: O=[N+]([O-])c1ccccc1N=Nc1c(O)[nH]c2ccc(S(=O)(=O)O)cc12
OUT: > 100 µM

IN: Look up TGI: CCOC(=O)c1c(SC(=O)C(C)(C)Oc2ccc(Cl)cc2)n(-c2ccccc2)c(=S)n(-c2ccccc2)c1=O
OUT: 65.3 µM

====

system: NCI-H23 lung; test: NCI tumour cell line growth inhibition, 48 h; in the data active means GI50 below about 0.43 µM; inactive means the rest
Return exactly one item of active, inactive

IN: Per the records of this test, what outcome belongs to N[C@H]1C[C@@H]1c1ccc(-c2cccc(O)c2)cc1 ?
OUT: inactive

IN: Per the records of this test, what outcome belongs to COc1cccc(/C(COc2ccc3c(c2)oc(=O)c2ccccc23)=N\O)c1 ?
OUT: inactive

IN: Per the records of this test, what outcome belongs to CC(=O)OCc1cnc2c3c(nc4ccccc4c13)C(=O)c1cccnc1-2 ?
OUT: active

====

test system: UACC-62 melanoma; experiment: NCI tumour cell line growth inhibition, 48 h
Exercise: for every item that follows, state its recorded TGI.

IN: Look up TGI: O=C(/C=C/c1cccs1)c1ccc(Cl)cc1Cl
OUT: 26.4 µM

IN: Look up TGI: COC(=O)c1cc(C)n(CN(Cn2nc(C(=O)OC)cc2C)c2ccccc2)n1
OUT: 88 µM

IN: Look up TGI: COc1ccc2cc(C(=O)CCC(=O)O)ccc2c1
OUT: > 100 µM

IN: Look up TGI: Nc1nc(Cl)nc(NCc2ccccc2)n1
OUT: > 100 µM

IN: Look up TGI: O=C(/C=C/c1ccc(Cl)cc1)c1ccc(Cl)c(Cl)c1
OUT: 70 µM

IN: Look up TGI: O=C1Nc2ccccc2/C1=C\c1c[nH]c2ccc(Br)cc12
OUT: 3.72 µM

IN: Look up TGI: C=CCN1CN(C2CCCCC2)CSC1=S
OUT: 22.1 µM

IN: Look up TGI: CCSc1cc(C(=O)OC)c2n(c1=O)CCCC2
OUT: > 100 µM

IN: Look up TGI: COc1ccc(NC(=O)Nc2ccccc2CNc2nc(Nc3ccc(OCCN4CCCC4)cc3)ncc2Cl)cc1
OUT: 1.63 µM

IN: Look up TGI: CN1CCN(CC(=O)N2CCCn3c2nc2ccccc2c3=O)CC1
OUT: > 100 µM

IN: Look up TGI: CCOCc1cc(=O)c2cc3c(cc2o1)OC(C)(C)CC3
OUT: > 100 µM

IN: Look up TGI: COc1cc2c(cc1OC)C(C#N)(Cc1ccccc1)N(C(=O)c1ccccc1)C=C2 (centres undefined)
OUT: > 100 µM

IN: Look up TGI: O=c1[nH]cnc2c1ccn2C1OC(CO)C(O)C1O (centres undefined)
OUT: 27.8 µM

IN: Look up TGI: NC(Cc1ccc(O)c(O)c1)P(=O)(O)O (centres undefined)
OUT: > 100 µM

IN: Look up TGI: CC(C)(C)C1=Nc2c(Br)cc(C(C)(C)C)cc2C(C(F)(F)F)(C(F)(F)F)O1
OUT: > 100 µM

IN: Look up TGI: COC(=O)Cc1c(C(=O)CC(C)(C)n2cnc(CCN3C(=O)CCC3=O)c2)[nH]c2ccccc12
OUT: > 100 µM

IN: Look up TGI: CCOc1ccccc1N1C(=O)C(=O)C(c2nc3ccccc3s2)C(=O)C1=O
OUT: > 100 µM

IN: Look up TGI: Cc1cc(C)nc(Sc2c([N+](=O)[O-])ncn2C)n1
OUT: > 100 µM

IN: Look up TGI: NC1CCCCC1N.O=C([O-])c1cc(S(=O)(=O)Nc2cc(S(=O)(=O)[O-])cc3cc(S(=O)(=O)[O-])cc(O)c23)ccc1[O-].[Pt+4]
OUT: > 100 µM

IN: Look up TGI: CN1c2ccc(O)c(O)c2-c2cc(O)cc3c2C1CCC3 (centres undefined)
OUT: 32.3 µM

IN: Look up TGI: Oc1c(I)cc(I)cc1CNCCN(Cc1ccccn1)Cc1ccccn1
OUT: 4.21 µM

IN: Look up TGI: C#C[C@]1(O)CCC2C3CCc4cc(Oc5nc(F)nc(-n6c(C)nc7cc8ccccc8cc76)n5)ccc4C3CCC21C (some centres undefined)
OUT: > 100 µM

IN: Look up TGI: O=C(NCc1ccccc1)c1cc2ccc(O)c(O)c2cn1
OUT: 33.5 µM

IN: Look up TGI: Nc1cccc(C2CCCc3c2[nH]c2ccccc32)c1 (centres undefined)
OUT: 31.1 µM

IN: Look up TGI: O=C(CC1C(=O)Nc2ccccc2S1(=O)=O)Nc1cc(Cl)ccc1Cl (centres undefined)
OUT: 33.7 µM

IN: Look up TGI: C=CCN1C(N)=C(C#N)C(C#N)(C#N)C1CCC (centres undefined)
OUT: > 100 µM

IN: Look up TGI: NCCNS(=O)(=O)c1ccc(N)cc1
OUT: > 100 µM

IN: Look up TGI: Cc1c2c(nn1-c1ccc(S/N=C3\SCC(=O)CN3Cc3ccccc3)cc1)-c1ccccc1CC2
OUT: > 100 µM

IN: Look up TGI: O=C(O)CCN1CCN(CCC(=O)O)CCN(CCC(=O)O)CC1
OUT: > 100 µM

IN: Look up TGI: COc1ccc(C2=C(Cl)C(=O)N(c3ccc(OC)cc3OC)C(=O)C2(Cl)Cl)cc1
OUT: 28 µM

IN: Look up TGI: N#Cc1c2c(c(Nc3ccc(F)cc3)n3c1nc1ccccc13)CCCC2
OUT: > 100 µM

IN: Look up TGI: CCCCCCCCCCCCCCCCCCOP1(=O)OCCO1
OUT: > 100 µM

IN: Look up TGI: COc1ccc(C2SC(N)=Nc3c2c(C)nn3C(=O)c2ccccc2O)cc1 (centres undefined)
OUT: > 10 µM

IN: Look up TGI: CCOC(=O)Nc1cc(NC(/C=N/NC(C)=O)C(=O)OCC)c(OC)cc1NC(C)=O (centres undefined)
OUT: > 100 µM

IN: Look up TGI: O=S(=O)(O)c1cc(N=Nc2cccc3ccccc23)c(O)c2ncccc12
OUT: > 100 µM

IN: Look up TGI: CC(C)(C)OC(=O)NC(Cc1ccc(OCc2ccccc2)cn1)C(=O)N1CCCC1 (centres undefined)
OUT: > 100 µM

IN: Look up TGI: c1ccc(-c2[o+]c(-c3ccccc3)c(-c3ccccc3)c(-c3ccccc3)c2-c2ccccc2)cc1
OUT: > 100 µM

IN: Look up TGI: CCN(CC)CCOCCn1c2c(c3ccccc31)CCCC2
OUT: 32.4 µM

IN: Look up TGI: C1OC1C1CO1 (centres undefined)
OUT: > 100 µM
